meta.source: ChEMBL document CHEMBL1143652

molecular target: Tubulin beta-4B chain (Homo sapiens); experiment: Percent […] of tubulin by the compound; type: functional
In this section we review reported TP values for a set of compounds.
The reply should contain only the number, in %.

Below: 5 compounds and their reported TP.
{"columns": ["SMILES_STR", "TP, %"],
 "data": [
  ["C/C(=C\\c1csc(C)n1)[C@@H]1C[C@@H]2O[C@]2(C)CCC[C@H](C)[C@H](O)[C@@H](C)C(=O)C(C)(C)[C@@H](O)CC(=O)O1", 98],
  ["C/C(=C\\c1ccc(C)cn1)[C@@H]1C[C@@H]2O[C@]2(C)CCC[C@H](C)[C@H](O)[C@@H](C)C(=O)C(C)(C)[C@@H](O)CC(=O)O1", 92],
  ["C/C(=C\\c1cccc(C)n1)[C@@H]1C[C@@H]2O[C@]2(C)CCC[C@H](C)[C@H](O)[C@@H](C)C(=O)C(C)(C)[C@@H](O)CC(=O)O1", 45],
  ["C/C(=C\\c1csc(C)n1)[C@@H]1C[C@@H]2O[C@@H]2CCC[C@H](C)[C@H](O)[C@@H](C)C(=O)C(C)(C)[C@@H](O)CC(=O)O1", 76],
  ["C/C(=C\\c1ncccc1C)[C@@H]1C[C@@H]2O[C@]2(C)CCC[C@H](C)[C@H](O)[C@@H](C)C(=O)C(C)(C)[C@@H](O)CC(=O)O1", 0]
]}

Query: TP; subject: "CSc1nc(/C=C(\C)[C@@H]2C/C=C\CCC[C@H](C)[C@H](O)[C@@H](C)C(=O)C(C)(C)[C@@H](O)CC(=O)O2)cs1"
92

Query: TP; subject: "C/C(=C\c1csc(C)n1)[C@@H]1C[C@@H]2O[C@]2(CF)CCC[C@H](C)[C@H](O)[C@@H](C)C(=O)C(C)(C)[C@@H](O)CC(=O)O1"
93

Query: TP; subject: "C/C(=C\c1ccccn1)[C@@H]1C[C@@H]2O[C@]2(C)CCC[C@H](C)[C@H](O)[C@@H](C)C(=O)C(C)(C)[C@@H](O)CC(=O)O1"
79.5

Query: TP; subject: "C/C(=C\c1cc(C)ccn1)[C@@H]1C[C@@H]2O[C@]2(C)CCC[C@H](C)[C@H](O)[C@@H](C)C(=O)C(C)(C)[C@@H](O)CC(=O)O1"
90.3

* * *

assay: In vitro cytotoxicity against leukemia P-388 tumor cells; type: functional, cell-based; details: Mus musculus, P388
In this section we review reported IC50 values for a set of compounds.
Could you write the number and then its unit?

Below: 3 compounds and their reported IC50.
{"columns": ["SMILES_STR", "IC50"],
 "data": [
  ["CCOC(=O)c1c(OCC)cc(C)cc1[C@H]1[C@@H](C(C)C)CC[C@@]1(C)C(=O)OCC", "54.2 µM"],
  ["Cc1cc(O)c2c(c1)[C@H]1[C@@H](C(C)C)CC[C@@]1(C)C(=O)C2=O", "13.9 µM"],
  ["COC(=O)[C@]1(O)C(=O)c2c(cc(C)c(Br)c2O)[C@H]2[C@@H](C(C)C)CC[C@]21C", "31.6 µM"]
]}

Okay, now this compound:
Query: IC50; subject: "Cc1cc2c(c(O)c1Br)C(=O)C(=O)[C@]1(C)CC[C@H](C(C)C)[C@H]21"
13.5 µM

* * *

biological target: Tubulin beta-4B chain (Homo sapiens); assay: Tubulin polymerization at a concentration of 100 uM incubated for 90 minutes; format: functional
READOUT_LABEL: TP (%)
The reply should contain only the number, in %.

Below: 5 molecules and their reported TP.
{"columns": ["MOLECULE", "TP / %"],
 "data": [
  ["CO[C@]12C=C[C@](C)(O1)[C@@H](OC(=O)/C=C/c1cn(C)cn1)C[C@H]1C(C)=CC[C@H](C(C)C)[C@H]1/C=C\\2COC1OCC(O)C(O)C1OC(C)=O (some centres not stated)", 54],
  ["CCOC(=O)/C1=C/[C@@H]2[C@@H](C(C)C)CC=C(C)[C@@H]2C[C@H](OC(=O)/C=C/c2cn(C)cn2)[C@]2(C)C=C[C@@]1(O)O2", 71],
  ["CNC(=O)/C1=C/[C@@H]2[C@@H](C(C)C)CC=C(C)[C@@H]2C[C@H](OC(=O)/C=C/c2cn(C)cn2)[C@]2(C)C=C[C@@]1(OC)O2", 52],
  ["CCOC(=O)/C1=C/[C@@H]2[C@@H](C(C)C)CC=C(C)[C@@H]2C[C@H](OC(=O)/C=C/c2cn(C)cn2)[C@]2(C)C=C[C@@]1(OC)O2", 46],
  ["CO[C@]12C=C[C@](C)(O1)[C@@H](OC(=O)/C=C/c1csc(C)n1)C[C@H]1C(C)=CC[C@H](C(C)C)[C@H]1/C=C\\2COC1OCC(O)C(O)C1OC(C)=O (some centres not stated)", 56]
]}

Query: TP; subject: "CCCOC(=O)/C1=C/[C@@H]2[C@@H](C(C)C)CC=C(C)[C@@H]2C[C@H](OC(=O)/C=C/c2cn(C)cn2)[C@]2(C)C=C[C@@]1(OC)O2"
69

Query: TP; subject: "COC(=O)/C1=C/[C@@H]2[C@@H](C(C)C)CC=C(C)[C@@H]2C[C@H](OC(=O)/C=C/c2cn(C)cn2)[C@]2(C)C=C[C@@]1(O)O2"
67

* * *

Molecular target: Bile acid receptor (Homo sapiens)
Sequence (Q96RI1 whole entry): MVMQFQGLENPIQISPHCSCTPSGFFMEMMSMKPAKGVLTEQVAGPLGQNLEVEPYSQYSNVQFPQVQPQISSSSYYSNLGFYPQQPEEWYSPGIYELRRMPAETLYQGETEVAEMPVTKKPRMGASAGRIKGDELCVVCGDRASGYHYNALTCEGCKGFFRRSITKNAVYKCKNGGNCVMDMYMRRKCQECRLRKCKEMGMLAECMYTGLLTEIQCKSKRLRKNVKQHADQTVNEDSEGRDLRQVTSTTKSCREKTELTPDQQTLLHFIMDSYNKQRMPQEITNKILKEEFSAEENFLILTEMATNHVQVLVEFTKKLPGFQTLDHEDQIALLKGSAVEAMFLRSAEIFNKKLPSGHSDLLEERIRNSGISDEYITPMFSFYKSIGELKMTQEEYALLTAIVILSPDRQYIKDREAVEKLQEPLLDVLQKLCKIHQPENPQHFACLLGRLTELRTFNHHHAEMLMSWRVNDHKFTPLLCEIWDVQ
Assay: Effective concentration against farnesoid X receptor (FXR); range is 5-10 uM
READOUT_LABEL: pEC50
Note on units: pEC50 is unitless, being -log10 of a concentration expressed in mol/L.

Missing value: pEC50, Bile acid receptor (Homo sapiens), entry "COc1c(CN(C(=O)C2CC2)c2ccccc2)ccc2c1OC(C)(C)C=C2" . Fill in?
5.00

* * *

test system: 1A9/ptx-10; assay: Inhibitory concentration against beta-tubulin mutant 1A9PTX10 cell growth; type: functional, cell-based; settings: Homo sapiens
Entries whose IC50 is below 6 nM take t; entries at or above 6 nM take f.

// below: answered compounds
{"columns": ["SMILES_STR", "CATEGORY_LABEL"],
 "data": [
  ["C/C(=C\\c1ccc(C)cn1)[C@@H]1C[C@@H]2C[C@@H]2CCC[C@H](C)[C@H](O)[C@@H](C)C(=O)C(C)(C)[C@@H](O)CC(=O)O1", "f"],
  ["CSc1nc(/C=C(\\C)[C@@H]2C[C@@H]3O[C@]3(C)CCC[C@H](C)[C@H](O)[C@@H](C)C(=O)C(C)(C)[C@@H](O)CC(=O)O2)cs1", "t"],
  ["C/C(=C\\c1csc(C)n1)[C@@H]1C[C@@H]2C[C@@H]2CCC[C@H](C)[C@H](O)[C@@H](C)C(=O)C(C)(C)[C@@H](O)CC(=O)O1", "f"],
  ["C/C(=C\\c1csc(C)n1)[C@@H]1C[C@@H]2O[C@]2(C)CCC[C@H](C)[C@H](O)[C@@H](C)C(=O)C(C)(C)[C@@H](O)CC(=O)O1", "t"],
  ["C/C(=C\\c1ncccc1C)[C@@H]1C[C@@H]2O[C@]2(C)CCC[C@H](C)[C@H](O)[C@@H](C)C(=O)C(C)(C)[C@@H](O)CC(=O)O1", "f"],
  ["CSc1nc(/C=C(\\C)[C@@H]2C/C=C\\CCC[C@H](C)[C@H](O)[C@@H](C)C(=O)C(C)(C)[C@@H](O)CC(=O)O2)cs1", "f"]
]}

Dear reviewer, please state whether "CSc1nc(/C=C(\C)[C@@H]2C[C@@H]3C[C@H]3CCC[C@H](C)[C@H](O)[C@@H](C)C(=O)C(C)(C)CCC(=O)O2)cs1" has IC50 strictly beneath 6 nM.
t

Dear reviewer, please state whether "CSc1nc(/C=C(\C)[C@@H]2C[C@@H]3C[C@@]3(C)CCC[C@H](C)[C@H](O)[C@@H](C)C(=O)C(C)(C)CCC(=O)O2)cs1" has IC50 strictly beneath 6 nM.
t

Dear reviewer, please state whether "C/C(=C\c1csc(C)n1)[C@@H]1C[C@@H]2C[C@@]2(C)CCC[C@H](C)[C@H](O)[C@@H](C)C(=O)C(C)(C)CCC(=O)O1" has IC50 strictly beneath 6 nM.
f

Dear reviewer, please state whether "C/C(=C\c1csc(C)n1)[C@@H]1C[C@@H]2O[C@@H]2CCC[C@H](C)[C@H](O)[C@@H](C)C(=O)C(C)(C)[C@@H](O)CC(=O)O1" has IC50 strictly beneath 6 nM.
f

Dear reviewer, please state whether "C/C(=C\c1cccc(C)n1)[C@@H]1C[C@@H]2O[C@]2(C)CCC[C@H](C)[C@H](O)[C@@H](C)C(=O)C(C)(C)[C@@H](O)CC(=O)O1" has IC50 strictly beneath 6 nM.
f
